System: CHO
Assay: % viability of CHO cells (MTT); higher = less toxic
Settings: 20 µM; 48 h
EXPERIMENTAL_READOUT: % viability of CHO cells (%)
Form entry: value (%) — number only.

For the record CCN(CC)CCCC(C)Nc1ccnc2cc(Cl)ccc12 (stereo not given) , what value of % viability of CHO cells is listed for CHO? 76.9

For the record CC(C)(C)c1ccc(C(=O)NC(=O)N2CCCc3ccccc32)cc1 , what value of % viability of CHO cells is listed for CHO? 101

For the record Nc1nc(-c2ccccc2)nc2[nH]nc(Nc3ccc(C(F)(F)F)cc3)c12 , what value of % viability of CHO cells is listed for CHO? 60.9

For the record COC(=O)Nc1nc2cc(S(=O)c3ccccc3)ccc2[nH]1 (stereo not given) , what value of % viability of CHO cells is listed for CHO? 78

For the record COc1ccc(CNC(=O)C(NS(=O)(=O)c2ccc3nc(C)sc3c2)C(C)C)cc1 (stereo not given) , what value of % viability of CHO cells is listed for CHO? 75.8

For the record CCN(CC)S(=O)(=O)c1ccc(Cl)c(C(=O)Nc2sc3c(c2C#N)CCCC3)c1 , what value of % viability of CHO cells is listed for CHO? 109

For the record OB1OCc2c1ccc(Cl)c2F , what value of % viability of CHO cells is listed for CHO? 101

For the record O=C(c1ccc(F)cc1)N1CCN2C(=O)c3ccccc3C12c1ccccc1 (stereo not given) , what value of % viability of CHO cells is listed for CHO? 109

For the record CCCCN1C[C@H](O)[C@@H](O)[C@H](O)[C@H]1CO , what value of % viability of CHO cells is listed for CHO? 108

For the record COC1CC2CCC(C)C(O)(O2)C(=O)C(=O)N2CCCCC2C(=O)OC(C(C)CC2CCC(OCCO)C(OC)C2)CC(=O)C(C)/C=C(\C)C(O)C(OC)C(=O)C(C)CC(C)/C=C/C=C/C=C/1C (stereo not given) , what value of % viability of CHO cells is listed for CHO? 106

For the record CCc1ccc(C2CC(C(F)(F)F)n3ncc(C(=O)NCc4ccc(OC)cc4)c3N2)cc1 (stereo not given) , what value of % viability of CHO cells is listed for CHO? 61.2

For the record COc1ccc2c(c1OC)C(=O)OC2C1c2c(cc3c(c2OC)OCO3)CCN1C (stereo not given) , what value of % viability of CHO cells is listed for CHO? -0.468

For the record CCCCc1ccc(-c2cc(C(=O)O)cc(-c3ccc(Cl)cc3)n2)cc1 , what value of % viability of CHO cells is listed for CHO? 108

For the record CN1CCN(c2ccc3[nH]c(-c4ccc5[nH]c(-c6ccc(O)cc6)nc5c4)nc3c2)CC1 , what value of % viability of CHO cells is listed for CHO? 115

For the record COc1nc2ccc(Br)cc2cc1[C@@H](c1ccccc1)[C@@](O)(CCN(C)C)c1cccc2ccccc12 , what value of % viability of CHO cells is listed for CHO? 140

For the record O=C(NCc1ncc(C(F)(F)F)cc1Cl)c1c(Cl)cccc1Cl , what value of % viability of CHO cells is listed for CHO? 72.6

For the record Cc1cc(C)n2nc(C(=O)NS(=O)(=O)c3c(C)cccc3OC(F)(F)F)nc2n1 , what value of % viability of CHO cells is listed for CHO? 122

For the record CCOc1noc2cc(OCCC3CCN(c4ccc(C)nn4)CC3)ccc12 , what value of % viability of CHO cells is listed for CHO? 58

For the record CN(C)CC(=O)Nc1ccc2[nH]c(=O)c3ccccc3c2c1 , what value of % viability of CHO cells is listed for CHO? 109

For the record COc1cc(Cc2cc(N)nc(N)n2)cc(OC)c1OC , what value of % viability of CHO cells is listed for CHO? 103

For the record O=C(O)CSc1cc(NS(=O)(=O)c2cccc3cccnc23)c2ccccc2c1O , what value of % viability of CHO cells is listed for CHO? 80.9

For the record C[C@@H](NC(=O)c1ccccc1-c1ccccc1)B(O)O , what value of % viability of CHO cells is listed for CHO? 94

For the record CCc1ccccc1OCCN1CCCCCC1 , what value of % viability of CHO cells is listed for CHO? 109

For the record C[C@@H](c1nc(-c2ccc(C#N)cc2)cs1)[C@](O)(Cn1cncn1)c1ccc(F)cc1F , what value of % viability of CHO cells is listed for CHO? 99.8

For the record CC(=N)N1CC[C@H](SC2=C(C(=O)O)N3C(=O)[C@@H]([C@@H](C)O)[C@H]3C2)C1 , what value of % viability of CHO cells is listed for CHO? 33.9
